- Tested on: T. cruzi Dm28c trypomastigotes
- test.description: Beta-galactosidase assay, trypomastigotes
- Type: cell-based, Trypanosoma cruzi
- conditions.used: Trypanosoma cruzi, Dm28c strain expressing β-galactosidase; read-out: IC50 ± SD Tripomastigotes
measured.metric: IC50 (µM)
# value in µM; strip the unit string

Tested system T. cruzi Dm28c trypomastigotes; IC50 recorded for OCc1ccc(-c2nnc(-c3cccs3)o2)o1 [A5B4c] was 13.4

---

- tested.target: TcBDF3 (Trypanosoma cruzi, UniProt Q4DXV1)
- Sequence (Q4DXV1 entry or part of it): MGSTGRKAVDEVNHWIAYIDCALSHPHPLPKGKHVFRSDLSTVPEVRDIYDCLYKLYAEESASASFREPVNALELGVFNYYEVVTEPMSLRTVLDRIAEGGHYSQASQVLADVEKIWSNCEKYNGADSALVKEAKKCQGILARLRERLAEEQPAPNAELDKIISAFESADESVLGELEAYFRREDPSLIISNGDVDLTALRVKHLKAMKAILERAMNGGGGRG
- test.description: Fluorescence polarization (FP) assay, displacement of BSP-AF488 probe
- Type: binding
- conditions.used: 0.5 μM BSP-AF488, 100-μM TcBDF3
measured.metric: IC50 (µM)
# value in µM; strip the unit string

> print(dat)
                   compound.smiles  units.label  reported.measurement
1  COc1cc(-c2nnc(-c3cccs3)o2)ccc1O           µM                   8.4
2    OCc1ccc(-c2nnc(-c3cccs3)o2)o1           µM                  10.5

Let us move to another entry and its IC50.
So, COc1cc(/C=N/NC(=O)c2cccs2)ccc1O ? Its IC50 was 2.4

Source of measurements: paper PMC11473290
